# assay_target: Tyrosinase (Agaricus bisporus)
# measurement_conditions: at 1 mM
assay_readout: inhibition (%)
Provide the reading as a plain figure in %.

Example entries and their recorded answers appear below.
smiles	recorded_value
CCc1c(O)c(=S)ccn1CC	100
Cc1cc(=O)c(O)co1	86
O=C(O)c1cccc(C(=O)O)n1	99
Cc1occ(O)c(=O)c1C(=O)O	96
Cc1occc(=O)c1O	-6
Cc1ccc(C(=O)O)c(O)c1	97

Bench note: what inhibition did O=C(O)c1cccc[n+]1[O-] show?
88

Would you mind doing O=C(O)c1nccc2ccccc12 as well?
72

----------
# assay_target: Tyrosinase (Agaricus bisporus);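 note: inhibition measured at 10 min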
# Sequence (whole entry): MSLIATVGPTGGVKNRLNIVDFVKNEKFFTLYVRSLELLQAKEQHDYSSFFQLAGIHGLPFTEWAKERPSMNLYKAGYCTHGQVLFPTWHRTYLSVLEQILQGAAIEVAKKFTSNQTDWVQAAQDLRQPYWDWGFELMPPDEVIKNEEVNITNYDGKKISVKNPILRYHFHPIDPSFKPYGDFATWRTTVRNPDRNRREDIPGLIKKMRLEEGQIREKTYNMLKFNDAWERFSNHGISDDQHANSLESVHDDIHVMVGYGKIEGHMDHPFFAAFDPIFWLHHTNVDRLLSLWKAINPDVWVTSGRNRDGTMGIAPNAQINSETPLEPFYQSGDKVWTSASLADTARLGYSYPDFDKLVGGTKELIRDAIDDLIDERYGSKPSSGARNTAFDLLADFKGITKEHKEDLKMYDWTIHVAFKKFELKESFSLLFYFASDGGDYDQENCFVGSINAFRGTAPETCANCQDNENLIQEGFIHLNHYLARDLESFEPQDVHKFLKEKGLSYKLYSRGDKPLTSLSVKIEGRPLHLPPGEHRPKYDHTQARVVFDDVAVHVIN
# measurement_conditions: at 1 mM
assay_readout: inhibition (%)
Provide the reading as a plain figure in %.

molecule	units_label	inhibition
Cn1cccc(O)c1=O	%	-6
O=C(O)c1cccc(O)c1O	%	88
Cc1nc(O)nc(O)c1C	%	32
O=C(O)c1ccccn1	%	74

Bench note: what inhibition did CCc1occc(=O)c1O show?
-7

Would you mind doing Cc1ccc(O)c(C(=O)O)c1 as well?
98

Would you mind doing Cc1ccc(C(=O)O)c(C(=O)O)n1 as well?
96

----------
We begin with a simple list: items and their reported inhibition.
# assay_target: UniProt P08253
# Sequence (P08253 110-660 limits assumed): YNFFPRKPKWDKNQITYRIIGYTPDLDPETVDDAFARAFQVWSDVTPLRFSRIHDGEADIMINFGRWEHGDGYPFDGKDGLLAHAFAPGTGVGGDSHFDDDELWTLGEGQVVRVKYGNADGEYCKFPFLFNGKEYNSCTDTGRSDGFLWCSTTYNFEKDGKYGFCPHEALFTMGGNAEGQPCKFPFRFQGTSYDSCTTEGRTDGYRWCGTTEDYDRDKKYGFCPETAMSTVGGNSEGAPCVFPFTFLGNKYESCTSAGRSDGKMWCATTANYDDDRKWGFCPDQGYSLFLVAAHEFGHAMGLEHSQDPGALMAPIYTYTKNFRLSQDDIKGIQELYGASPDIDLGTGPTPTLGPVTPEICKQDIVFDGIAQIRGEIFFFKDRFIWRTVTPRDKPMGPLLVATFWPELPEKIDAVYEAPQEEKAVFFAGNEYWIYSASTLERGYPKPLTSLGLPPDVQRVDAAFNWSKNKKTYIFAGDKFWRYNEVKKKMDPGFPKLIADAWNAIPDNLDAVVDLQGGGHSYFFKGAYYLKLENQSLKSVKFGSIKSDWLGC
# measurement_conditions: at 1 mM
Provide the reading as a plain figure in %.

compound	inhibition, %
Cc1occc(=S)c1O	100
O=C(O)c1ccc(O)c(O)c1	-8

Bench note: what inhibition did O=c1cccccc1O [TROPOLONE] show?
89

----------
# assay_target: Neutrophil collagenase (Homo sapiens) (UniProt P22894)
# Sequence (P22894 101-467 limits assumed): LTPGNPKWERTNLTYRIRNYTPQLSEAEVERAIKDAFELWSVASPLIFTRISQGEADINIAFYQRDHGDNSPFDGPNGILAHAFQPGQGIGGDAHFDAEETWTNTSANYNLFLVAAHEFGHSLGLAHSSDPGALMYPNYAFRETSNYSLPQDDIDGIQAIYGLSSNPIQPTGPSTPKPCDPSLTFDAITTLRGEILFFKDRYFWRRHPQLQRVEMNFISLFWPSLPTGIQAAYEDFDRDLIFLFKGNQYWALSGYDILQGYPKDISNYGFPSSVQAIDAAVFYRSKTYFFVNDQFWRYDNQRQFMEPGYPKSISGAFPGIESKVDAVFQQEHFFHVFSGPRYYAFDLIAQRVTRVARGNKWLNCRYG
# measurement_conditions: at 1 mM
We begin with a simple list: items and their reported inhibition.
Provide the reading as a plain figure in %.

Example entries and their recorded answers appear below.
smiles	recorded_value
Oc1ccccc1-c1nc2ccccc2s1	40
Oc1coccc1=S	102
CCc1c(O)c(=O)ccn1C	34
Cc1cc(C)nc(S)n1	49
Oc1nccc(S)n1	83

Write down the reported inhibition of O=c1ccocc1O , test system: Neutrophil collagenase (Homo sapiens) (UniProt P22894).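 Note: recombinant human MMP8 enzyme, percent inhibition read after 30 min.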
43

Would you mind doing O=C(O)c1ccc(O)cc1O as well?
-1

Would you mind doing Cc1nc(O)nc(O)c1C as well?
2

Would you mind doing Oc1ccc(Cl)c2cccnc12 as well?
73

Would you mind doing Oc1cccnc1O as well?
7

Would you mind doing Nc1[nH]cnc2ncnc1-2 as well?
9
